Molecular target: T1, human MSLN-R1-his protein (human, UniProt Q13421 296-390)
T1 construct: Region 1 of human mesothelin, made in HEK293E cells, His-tagged; also called human MSLN-R1 protein; hMSLN-R1-his; not shown: His tag
T1 chain: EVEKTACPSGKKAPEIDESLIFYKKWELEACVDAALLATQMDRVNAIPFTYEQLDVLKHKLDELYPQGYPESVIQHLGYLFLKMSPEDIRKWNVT
Test: ELISA on coated MSLN-R1; no antibody (blank)
Attribute: OD450
# output: bare number, implied unit OD450

Example cases with answers are listed next.
[
  {
    "binder": "S009-F8-15.19 (antibody, human IgG1, kappa, V domains shown) VH: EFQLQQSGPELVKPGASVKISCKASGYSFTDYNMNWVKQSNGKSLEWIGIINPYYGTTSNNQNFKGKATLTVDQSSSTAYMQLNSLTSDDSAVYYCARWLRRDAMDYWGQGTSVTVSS VL: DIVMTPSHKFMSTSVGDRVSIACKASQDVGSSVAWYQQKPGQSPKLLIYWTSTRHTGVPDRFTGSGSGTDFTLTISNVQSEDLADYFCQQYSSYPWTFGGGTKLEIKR",
    "readout.value": 0.05
  },
  {
    "binder": "S009-F8-8.22 (antibody, human IgG1, kappa, V domains shown) VH: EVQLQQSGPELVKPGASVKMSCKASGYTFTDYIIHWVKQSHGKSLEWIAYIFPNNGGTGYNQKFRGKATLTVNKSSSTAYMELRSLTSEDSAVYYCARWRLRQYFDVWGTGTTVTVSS VL: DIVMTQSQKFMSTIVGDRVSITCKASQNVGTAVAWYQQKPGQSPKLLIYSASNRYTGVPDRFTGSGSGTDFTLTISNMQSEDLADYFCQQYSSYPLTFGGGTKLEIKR",
    "readout.value": 0.06
  },
  {
    "binder": "S009-F8-24.14 (antibody, human IgG1, kappa, V domains shown) VH: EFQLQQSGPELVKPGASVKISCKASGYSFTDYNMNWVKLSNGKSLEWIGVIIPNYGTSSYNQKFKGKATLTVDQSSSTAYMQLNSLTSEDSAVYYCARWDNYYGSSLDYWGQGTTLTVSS VL: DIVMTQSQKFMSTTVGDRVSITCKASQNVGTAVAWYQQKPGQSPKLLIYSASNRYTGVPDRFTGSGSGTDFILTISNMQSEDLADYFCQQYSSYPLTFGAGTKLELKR",
    "readout.value": 0.04
  },
  {
    "binder": "S009-F8-9.16 (antibody, human IgG1, kappa, V domains shown) VH: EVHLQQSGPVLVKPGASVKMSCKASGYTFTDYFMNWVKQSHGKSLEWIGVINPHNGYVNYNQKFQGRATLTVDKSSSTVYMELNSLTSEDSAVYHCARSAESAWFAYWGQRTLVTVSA VL: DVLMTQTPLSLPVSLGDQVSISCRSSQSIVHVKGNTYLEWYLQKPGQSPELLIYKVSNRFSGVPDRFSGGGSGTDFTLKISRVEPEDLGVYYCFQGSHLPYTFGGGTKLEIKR",
    "readout.value": 0.04
  }
]

In the following, a different binder is considered.
QUERY: Dear colleague, I am looking for the recorded OD450 of the following binder: S009-F8-4.5 (antibody, human IgG1, kappa, V domains shown) VH: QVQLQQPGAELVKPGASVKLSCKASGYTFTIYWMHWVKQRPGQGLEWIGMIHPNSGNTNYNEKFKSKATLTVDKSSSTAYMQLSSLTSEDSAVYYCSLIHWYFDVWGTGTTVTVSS VL: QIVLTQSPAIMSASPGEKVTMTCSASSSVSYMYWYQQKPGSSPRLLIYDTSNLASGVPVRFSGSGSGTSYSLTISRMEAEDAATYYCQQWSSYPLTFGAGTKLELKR
RESULT: 0.05

All figures here come from patent US20250250357A1.
